Molecular target: human M1 mAChR (Homo sapiens, UniProt P11229)
Sequence (P11229 whole entry): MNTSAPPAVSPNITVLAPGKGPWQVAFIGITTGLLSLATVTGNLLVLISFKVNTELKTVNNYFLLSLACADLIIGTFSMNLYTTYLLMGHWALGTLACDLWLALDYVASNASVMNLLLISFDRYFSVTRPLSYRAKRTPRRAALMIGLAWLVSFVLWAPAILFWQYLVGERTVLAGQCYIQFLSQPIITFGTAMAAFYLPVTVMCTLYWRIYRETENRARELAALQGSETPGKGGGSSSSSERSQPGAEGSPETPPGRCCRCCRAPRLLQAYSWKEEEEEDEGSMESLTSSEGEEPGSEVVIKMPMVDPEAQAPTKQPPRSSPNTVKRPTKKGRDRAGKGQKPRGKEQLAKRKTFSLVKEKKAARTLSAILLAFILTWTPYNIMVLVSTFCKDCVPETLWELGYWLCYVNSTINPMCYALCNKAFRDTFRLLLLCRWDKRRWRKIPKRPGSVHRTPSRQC
Assay: Calcium mobilization in TET-inducible hM1 TREx CHO cells
Conditions: read-out: Ca EC50, TET 25 ng/mL
resultType: pEC50
Worth noting: pEC50 values are minus log10 of concentrations stated in mol/L.

CCOC(=O)N1CCC(NCCNC(=O)c2ccccc2C)CC1.Cl: 4.80

Okay, next one:
Query: Need pEC50, item `CCOC(=O)N1CCC(N2CCC[C@@H](NC(=O)c3ccccc3C)C2)CC1`
Response: 5.64

###

Biological target: human M1 mAChR (Homo sapiens)
Experiment: Calcium mobilization in TET-inducible hM1 TREx CHO cells
Conditions: read-out: Ca EC50, TET 1 μg/mL
resultType: EC50 (nM)
Give your result in nM as a bare value.

CCOC(=O)N1CCC(N2CCC[C@@H](NC(=O)c3ccccc3C)C2)CC1: 500

Okay, next one:
Query: What measured EC50 is associated with `CCOC(=O)N1CCC(NCCNC(=O)c2ccccc2C)CC1.Cl` on human M1 mAChR (Homo sapiens)?
Response: 690
